// provenance: patent US10392402B2

Overview of recorded IC50 for various compounds
system under test: ROCK1 (Homo sapiens (Human), UniProt Q13464)
Sequence (Q13464 whole entry): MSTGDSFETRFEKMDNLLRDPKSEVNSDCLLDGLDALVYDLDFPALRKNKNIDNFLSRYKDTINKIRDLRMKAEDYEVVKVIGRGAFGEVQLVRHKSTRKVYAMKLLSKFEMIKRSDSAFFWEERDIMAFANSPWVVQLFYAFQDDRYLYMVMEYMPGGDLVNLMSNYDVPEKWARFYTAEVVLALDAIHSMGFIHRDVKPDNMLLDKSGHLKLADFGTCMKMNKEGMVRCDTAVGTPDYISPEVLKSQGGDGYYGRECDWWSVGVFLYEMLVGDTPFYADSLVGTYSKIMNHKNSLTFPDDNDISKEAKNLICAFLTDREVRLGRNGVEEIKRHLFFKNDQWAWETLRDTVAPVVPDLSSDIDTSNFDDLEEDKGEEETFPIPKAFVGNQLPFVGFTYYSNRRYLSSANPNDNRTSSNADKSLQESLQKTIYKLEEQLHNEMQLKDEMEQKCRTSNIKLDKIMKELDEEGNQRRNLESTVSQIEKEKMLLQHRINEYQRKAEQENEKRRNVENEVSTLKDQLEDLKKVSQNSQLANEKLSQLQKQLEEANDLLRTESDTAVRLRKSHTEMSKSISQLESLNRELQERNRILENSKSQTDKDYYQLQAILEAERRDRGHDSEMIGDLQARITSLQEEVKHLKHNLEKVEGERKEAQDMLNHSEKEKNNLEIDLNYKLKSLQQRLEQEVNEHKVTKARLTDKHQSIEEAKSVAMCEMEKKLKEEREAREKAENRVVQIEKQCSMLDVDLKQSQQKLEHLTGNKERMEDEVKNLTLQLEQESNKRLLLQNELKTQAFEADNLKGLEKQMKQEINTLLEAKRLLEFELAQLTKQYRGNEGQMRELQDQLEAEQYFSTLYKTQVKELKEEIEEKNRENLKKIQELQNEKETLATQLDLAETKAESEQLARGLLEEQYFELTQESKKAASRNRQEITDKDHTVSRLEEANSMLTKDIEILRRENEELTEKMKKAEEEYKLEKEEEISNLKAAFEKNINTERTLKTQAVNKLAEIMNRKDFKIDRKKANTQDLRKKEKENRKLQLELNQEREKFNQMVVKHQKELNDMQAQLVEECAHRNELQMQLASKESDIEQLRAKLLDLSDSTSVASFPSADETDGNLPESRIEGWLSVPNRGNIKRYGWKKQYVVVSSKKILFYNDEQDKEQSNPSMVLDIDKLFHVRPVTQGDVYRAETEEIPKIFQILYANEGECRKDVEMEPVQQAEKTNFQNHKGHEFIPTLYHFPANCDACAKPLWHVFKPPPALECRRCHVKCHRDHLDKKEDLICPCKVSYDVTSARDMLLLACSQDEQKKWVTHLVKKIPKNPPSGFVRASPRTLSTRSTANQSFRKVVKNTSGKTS
Report the figure in µM without appending any unit label.

Reference set (2 entries):
O=C(N[C@H](CO)c1cccc(F)c1)c1cc(-c2ccncc2)[nH]n1 [Compound 1] | 0.207
COc1cccc(CN(CCN(C)C)C(=O)Nc2cc(-c3ccncc3)[nH]n2)c1 [Compound 11] | 0.0636

// moving on: another record for IC50
# assay system ROCK1 (Homo sapiens (Human), UniProt Q13464): give IC50 of COc1cccc(CNC(=O)Nc2cc(-c3ccncc3)[nH]n2)c1 [Compound 5]
0.073
